- Target System: Recombinant human HSD17B13 enzyme (Homo sapiens (Human), UniProt Q7Z5P4)
- Sequence (Q7Z5P4 20-300): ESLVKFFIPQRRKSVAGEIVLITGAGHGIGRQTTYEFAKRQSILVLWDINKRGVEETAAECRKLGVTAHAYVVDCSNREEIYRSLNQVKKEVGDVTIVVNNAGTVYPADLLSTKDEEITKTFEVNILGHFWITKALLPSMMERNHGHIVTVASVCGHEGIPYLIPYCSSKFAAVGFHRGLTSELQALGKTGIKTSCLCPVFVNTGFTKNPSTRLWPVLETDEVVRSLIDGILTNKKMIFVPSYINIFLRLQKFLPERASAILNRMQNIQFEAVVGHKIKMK
- Test Protocol: HSD17b13 NAD(P)H-Glo Biochemical Assay
- Run Conditions: 50 uM estradiol, 1 mM NAD+; read-out: HSD17β13 IC50
Recorded Endpoint: IC50

>>> observed_result("CS(=O)(=O)N1CCN(c2cc3cn(-c4ccc(C(F)(F)F)c(O)c4F)nc3cn2)CC1")
"1 to 30 µM"
>>> observed_result("Oc1ccc(-c2cc3cnn(-c4cc(O)c(F)c(F)c4)c3cc2Cl)cc1Cl")
"0.1 to 1 µM"
>>> observed_result("Cc1nn(-c2cc(O)c(F)c(C(C)O)c2)c2cnc(N3CCOCC34CC4)cc12 (centres unmarked)")
"1 to 30 µM"
>>> observed_result("Oc1ccc(-c2ccc3c(cnn3-c3cc(O)c(F)c(F)c3)c2)cc1Cl")
"0.1 to 1 µM"
>>> observed_result("CS(=O)(=O)N1CC(Oc2ccc3c(cnn3-c3cc(O)c(F)c(F)c3)c2)C1")
"0.1 to 1 µM"
>>> observed_result("CS(=O)(=O)N1CCN(c2ccc3c(cnn3-c3cc(O)cc(C(F)(F)F)n3)c2)CC1")
"1 to 30 µM"
>>> observed_result("CS(=O)(=O)N1CCN(c2cc3cnn(-c4cc(O)c(F)c(F)c4)c3cn2)CC1")
"0.1 to 1 µM"
>>> observed_result("CS(=O)(=O)N1CCN(c2ccc3c(cnn3-c3cc(O)c(F)c(F)c3)n2)CC1")
"1 to 30 µM"

----------
- Target System: Recombinant human HSD17B13 enzyme (Homo sapiens (Human), UniProt Q7Z5P4)
- Test Protocol: HSD17b13 NAD(P)H-Glo Biochemical Assay
- Run Conditions: 50 uM estradiol, 1 mM NAD+; read-out: HSD17β13 IC50
pIC50: −log10 of the molar value.
Recorded Endpoint: pIC50

>>> observed_result("COCCOC1CCN(c2cc3c(C)nn(-c4cc(C(F)(F)F)c(F)c(O)c4F)c3cn2)CC1")
"> 7.00"
>>> observed_result("O=S1(=O)CCN(c2ccc3c(cnn3-c3cc(O)c(F)c(F)c3)c2)CC1")
"4.52 to 6.00"
>>> observed_result("CC1(C)CN(S(C)(=O)=O)CCN1c1ccc2c(cnn2-c2cc(O)c(F)c(C(F)(F)F)c2)c1")
"4.52 to 6.00"
>>> observed_result("Cc1nn(-c2cc(C(F)(F)F)c(F)c(O)c2F)c2ccc(N(C)C3CCOCC3)c(F)c12")
"6.00 to 7.00"

----------
- Target System: Recombinant human HSD17B13 enzyme (Homo sapiens (Human), UniProt Q7Z5P4)
- Test Protocol: HSD17b13 NAD(P)H-Glo Biochemical Assay
- Run Conditions: read-out: HSD17β13 inhibition at 10 uM
Overview of reported inhibition at 10 µM across a group of compounds:
Recorded Endpoint: inhibition at 10 µM

>>> observed_result("CN(C)C(=O)C1CCN(c2ccc3c(cnn3-c3ccc(F)c(O)c3)c2)CC1")
"< 20%"
>>> observed_result("Cc1nn(-c2cc(O)c(F)c(C(=O)O)c2)c2cnc(N3CCOCC34CC4)cc12")
"< 20%"
>>> observed_result("Cc1nn(-c2cccc(O)c2C#N)c2cnc(N(C)C3CCOCC3)cc12")
"25%"
>>> observed_result("Cc1nc2cc(N3CCOCC34CC4)ncc2n1-c1cc(C(F)(F)F)c(F)c(O)c1F")
"< 20%"
>>> observed_result("CN(C)C(=O)C1(c2ccc3c(cnn3-c3cc(O)c(F)c(F)c3)c2)CCN(S(C)(=O)=O)CC1")
"< 20%"
>>> observed_result("CNC(=O)c1cc(-n2nc(C)c3cc(N4CCOCC45CC5)ncc32)cc(O)c1F")
"20%"

----------
- Target System: Recombinant human HSD17B13 enzyme (Homo sapiens (Human), UniProt Q7Z5P4)
- Test Protocol: HSD17b13 NAD(P)H-Glo Biochemical Assay
- Run Conditions: 50 uM estradiol, 1 mM NAD+; read-out: HSD17β13 IC50
Recorded Endpoint: IC50

>>> observed_result("CN(c1ccc2c(c1)c(C(N)=O)nn2-c1cc(C(F)(F)F)c(F)c(O)c1F)C1CCOCC1")
"100 to 1000 nM"
>>> observed_result("O=C(O)c1ccccc1-c1ccc2c(cnn2-c2ccc(F)c(O)c2)c1")
"1000 to 30000 nM"
>>> observed_result("Cc1n[nH]c(C)c1-c1ccc2c(cnn2-c2ccc(F)c(O)c2)c1")
"100 to 1000 nM"
>>> observed_result("CC1CN(S(C)(=O)=O)CCN1c1cc2cnn(-c3cc(O)c(F)c(C(F)(F)F)c3)c2cn1 (centres unmarked)")
"100 to 1000 nM"
>>> observed_result("Oc1cc(-n2ncc3cc(-c4ccc(O)c(Cl)c4)cnc32)ccc1F")
"100 to 1000 nM"
>>> observed_result("CN(C)S(=O)(=O)C1CN(c2ccc3c(cnn3-c3cc(O)c(F)c(F)c3)c2)C1")
"100 to 1000 nM"
>>> observed_result("Oc1ccc(-c2ccc3c(cnn3-c3cc(O)c(F)c(F)c3)c2)nc1")
"1000 to 30000 nM"
>>> observed_result("CN(c1ccc2c(c1)c(Cl)nn2-c1cc(C(F)(F)F)c(F)c(O)c1F)C1CCOCC1")
"100 to 1000 nM"
>>> observed_result("CS(=O)(=O)N1CC2(CN(c3ccc4c(cnn4-c4cc(O)c(F)c(F)c4)c3)C2)C1")
"100 to 1000 nM"
>>> observed_result("CN(c1ccc2c(c1)c(C#N)nn2-c1cc(C(F)(F)F)c(F)c(O)c1F)C1CCOCC1")
"100 to 1000 nM"
>>> observed_result("CS(=O)(=O)N1CCC(c2ccc3c(cnn3-c3cc(O)c(F)c(F)c3)c2)CC1")
"< 100 nM"
>>> observed_result("Cc1nn(-c2cc(C(F)(F)F)c(F)c(O)c2F)c2cnc(N3CCO[C@@H](c4ccccc4)C3)cc12")
"100 to 1000 nM"
>>> observed_result("CS(=O)(=O)C1CCN(c2ccc3c(cnn3-c3cc(O)c(F)c(F)c3)c2)CC1")
"1000 to 30000 nM"
>>> observed_result("CS(=O)(=O)N1CCN(c2ccc3c(cnn3-c3cc(O)c(F)c(F)c3)c2Cl)CC1")
"1000 to 30000 nM"
>>> observed_result("CS(=O)(=O)N1CCN(c2cc3cnn(-c4cc(O)cc(C(F)(F)F)c4)c3cn2)CC1")
"1000 to 30000 nM"
>>> observed_result("CS(=O)(=O)N1CCN(c2cc3c(C4CC4)nn(-c4cc(O)c(F)c(C(F)(F)F)c4)c3cn2)CC1")
"100 to 1000 nM"
>>> observed_result("Oc1cc(-n2ncc3nc(-c4ccc(O)c(Cl)c4)ncc32)ccc1F")
"1000 to 30000 nM"
>>> observed_result("NS(=O)(=O)c1ccc(-c2ccc3c(cnn3-c3ccc(F)c(O)c3)c2)cc1")
"100 to 1000 nM"
>>> observed_result("CC(=O)N1CCC(c2ccc3c(cnn3-c3ccc(F)c(O)c3)c2)CC1")
"1000 to 30000 nM"
>>> observed_result("Oc1cc(-n2cc3cc(-c4ccc(O)c(Cl)c4)ccc3n2)ccc1F")
"100 to 1000 nM"
>>> observed_result("CCc1nn(-c2cc(C(F)(F)F)c(F)c(O)c2F)c2ccc(N(C)C3CCOCC3)cc12")
"100 to 1000 nM"
>>> observed_result("CNc1c(-n2nc(Cl)c3cc(N(C)C4CCOCC4)ccc32)cc(C(F)(F)F)c(F)c1O")
"100 to 1000 nM"
>>> observed_result("CS(=O)(=O)N1CCN(c2ccc3c(c2)c(C2CC2)nn3-c2cc(O)c(F)c(F)c2)CC1")
"1000 to 30000 nM"
>>> observed_result("Cc1nn(-c2cc(O)c(F)c(C(=O)N(C)C)c2)c2cnc(N3CCOCC34CC4)cc12")
"100 to 1000 nM"
>>> observed_result("Oc1cc(-n2ncc3cc(-c4ccc(N5CCOCC5)cc4Cl)ccc32)ccc1F")
"1000 to 30000 nM"
>>> observed_result("CC1(C)COCCN1c1cc2cnn(-c3cc(O)c(F)c(C(F)(F)F)c3)c2cn1")
"100 to 1000 nM"
>>> observed_result("CS(=O)(=O)NC1CCN(c2ccc3c(cnn3-c3cc(O)c(F)c(F)c3)c2)CC1")
"1000 to 30000 nM"
>>> observed_result("Oc1ccc(-c2ccc3c(cnn3-c3ccc(F)c(O)c3)c2)c(C(F)(F)F)c1")
"100 to 1000 nM"
>>> observed_result("CS(=O)(=O)N1CCN(c2cc3cn(-c4ccc(F)c(O)c4)nc3cn2)CC1")
"1000 to 30000 nM"
>>> observed_result("Oc1cc(-n2ncc3cc(-c4ccc(OC(F)(F)F)cc4Cl)ccc32)ccc1F")
"100 to 1000 nM"
>>> observed_result("Cc1cccc(-c2ccc3c(cnn3-c3ccc(F)c(O)c3)c2)c1")
"1000 to 30000 nM"
>>> observed_result("O=S(=O)(c1ccc2c(cnn2-c2cc(O)c(F)c(F)c2)c1)N1CCOCC1")
"100 to 1000 nM"
